Cited source: patent CN113135995A

Parameter: Kd. Scope: all listed entries.
Biological target: T1, HER3胞外区重组蛋白 (recombinant HER3 extracellular domain protein, expressed in CHO cells) (human, UniProt P21860 20-643)
T1 construct: also called HER3蛋白
T1 sequence (P21860 20-643 limits assumed): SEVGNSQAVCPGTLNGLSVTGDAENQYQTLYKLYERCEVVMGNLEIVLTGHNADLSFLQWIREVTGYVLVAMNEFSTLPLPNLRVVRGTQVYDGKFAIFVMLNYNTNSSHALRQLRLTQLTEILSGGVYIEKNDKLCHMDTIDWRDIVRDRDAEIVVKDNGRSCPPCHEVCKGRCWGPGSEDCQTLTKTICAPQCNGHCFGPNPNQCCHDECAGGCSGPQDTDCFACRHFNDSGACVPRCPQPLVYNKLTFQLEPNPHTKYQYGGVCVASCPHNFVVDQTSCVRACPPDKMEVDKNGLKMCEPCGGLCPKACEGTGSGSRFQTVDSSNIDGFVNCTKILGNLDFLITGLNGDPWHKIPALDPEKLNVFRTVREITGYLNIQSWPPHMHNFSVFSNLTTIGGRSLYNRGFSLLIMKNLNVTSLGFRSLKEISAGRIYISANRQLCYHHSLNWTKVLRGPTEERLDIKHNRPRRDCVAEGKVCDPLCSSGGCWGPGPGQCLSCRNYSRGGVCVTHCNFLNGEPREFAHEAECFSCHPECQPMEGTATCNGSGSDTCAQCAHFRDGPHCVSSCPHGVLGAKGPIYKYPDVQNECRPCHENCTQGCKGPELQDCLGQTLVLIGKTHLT
Assay: ProteOn XPR36 SPR; antibody captured by goat anti-human IgG Fc on GLM chip, HER3 protein 0.625-10 nM as analyte
READOUT_KIND: Kd (nM)

INSERT INTO assay_data (binder, reported_result) VALUES
  ('hu1044-7抗体 (humanized anti-HER3 antibody variant hu1044-7) (antibody, V domains shown) VH: QVQLVQSGAEVKKPGSSVKVSCKASGGTFSNYWIDWVRQAPGQGLEWMGEILPGSGGTDYNEKFKGKATITADTSTSTAYMELSSLRSEDTAVYYCARDDYDVFAYWGQGTLVTVSS VL: DIVMTQSPGTLSLSPGERATLSCRSSKSLLHSNGITYLYWYQQKPGQAPRLLIYQMSNLASGVPDRFSSSGSGTDFTLTISRLEPEDFAVYYCAQNLELPWTFGQGTKVEIKR', 0.375),
  ('hu1044抗体 (humanized anti-HER3 monoclonal antibody hu1044) (antibody, V domains shown) VH: QVQLVQSGAEVKKPGSSVKVSCKASGGTFSNYWIDWVKQAPGQGLEWMGEILPGSGGTDYNEKFKGRVTITADTSTSTAYMELSSLRSEDTAVYYCARDDYDVFAYWGQGTLVTVSS VL: DIVMTQSPGTLSLSPGERATLSCRSSKSLLHSNGITYLYWYQQKPGQAPRLLIYQMSNLASGIPDRFSSSGSGTDFTLTISRLEPEDFAVYYCAQNLELPWTFGQGTKVEIKR', 0.442),
  ('hu1044-7Y抗体 (optimised humanized anti-HER3 antibody hu1044-7Y) (antibody, human IgG1, kappa, V domains shown, hu1044-7 with heavy chain position 27 changed from Gly to Tyr; In the flow cytometry assays it was labelled with Dylight 488 NHS ester) VH: QVQLVQSGAEVKKPGSSVKVSCKASGYTFSNYWIDWVRQAPGQGLEWMGEILPGSGGTDYNEKFKGKATITADTSTSTAYMELSSLRSEDTAVYYCARDDYDVFAYWGQGTLVTVSS VL: DIVMTQSPGTLSLSPGERATLSCRSSKSLLHSNGITYLYWYQQKPGQAPRLLIYQMSNLASGVPDRFSSSGSGTDFTLTISRLEPEDFAVYYCAQNLELPWTFGQGTKVEIKR', 0.117),
  ('hu1044Y抗体 (optimised humanized anti-HER3 antibody hu1044Y) (antibody, human IgG1, kappa, V domains shown, hu1044 with heavy chain position 27 changed from Gly to Tyr) VH: QVQLVQSGAEVKKPGSSVKVSCKASGYTFSNYWIDWVKQAPGQGLEWMGEILPGSGGTDYNEKFKGRVTITADTSTSTAYMELSSLRSEDTAVYYCARDDYDVFAYWGQGTLVTVSS VL: DIVMTQSPGTLSLSPGERATLSCRSSKSLLHSNGITYLYWYQQKPGQAPRLLIYQMSNLASGIPDRFSSSGSGTDFTLTISRLEPEDFAVYYCAQNLELPWTFGQGTKVEIKR', 0.232);
